method notes: Pharmacokinetics and brain uptake after i.v. and i.g. administration
Assay type: in vivo, male Wistar rats
experimental context: male, Wistar, po; rat, i.g. 2 mg/kg, brain
readout kind: MRT (h)
State just the number; it will be interpreted in h.

compound: COc1cccc(N2CCN(CC3CCN(c4ncnc5cc(OC)c(OC)cc45)C3)CC2)c1 (centres unmarked)
unit info: h
MRT: 3.58

Qu. Let me know recorded MRT for COc1cc2ncnc(N3CCC(CN4CCN(c5ccc(Cl)cc5)CC4)C3)c2cc1OC (centres unmarked) , thanks.
Ans. 12

###

method notes: Pharmacokinetics and brain uptake after i.v. and i.g. administration
Assay type: in vivo, male Wistar rats
experimental context: male, Wistar, plasma, po; rat, i.g. 2 mg/kg vs i.v. 0.5 mg/kg; read-out: F (absolute bioavailability)
readout kind: bioavailability (%)
State just the number; it will be interpreted in %.

Qu. Let me know recorded bioavailability for COc1cccc(N2CCN(CC3CCN(c4ncnc5cc(OC)c(OC)cc45)C3)CC2)c1 (stereo not shown) [PQA-AZ4] , thanks.
Ans. 8.3

###

method notes: Pharmacokinetics and brain uptake after i.v. and i.g. administration
Assay type: in vivo, male Wistar rats
experimental context: male, Wistar, iv; rat, i.v. 0.5 mg/kg, plasma
readout kind: AUC(0-t) (ng·h/mL)
State just the number; it will be interpreted in ng·h/mL.

compound: COc1cccc(N2CCN(CC3CCN(c4ncnc5cc(OC)c(OC)cc45)C3)CC2)c1 (centres unmarked)
AUC(0-t) [ng·h/mL]: 714

We now examine a further compound.
Qu. Let me know recorded AUC(0-t) for COc1cc2ncnc(N3CCC(CN4CCN(c5ccc(Cl)cc5)CC4)C3)c2cc1OC (centres unmarked) , thanks.
Ans. 93.6

###

method notes: Pharmacokinetics and brain uptake after i.v. and i.g. administration
Format: in vivo, male Wistar rats
experimental context: male, Wistar, rat, brain/plasma, iv, 0.5 mg/kg, i.v. 0.5 mg/kg, read-out: Brain/Plasma ratio
The reader will find reported Kp values listed item by item below.

molecule: COc1cccc(N2CCN(CC3CCN(c4ncnc5cc(OC)c(OC)cc45)C3)CC2)c1 (centres unmarked) [PQA-AZ4]
Kp: 0.9

We now examine a further molecule.
Qu. Let me know recorded Kp for COc1cc2ncnc(N3CCC(CN4CCN(c5ccc(Cl)cc5)CC4)C3)c2cc1OC (centres unmarked) [PQA-AZ6] , thanks.
Ans. 8.6

###

method notes: Pharmacokinetics and brain uptake after i.v. and i.g. administration
Type: in vivo, male Wistar rats
experimental context: male, Wistar, po; rat, i.g. 2 mg/kg, plasma
readout kind: AUC(0-t) (ng·h/mL)
State just the number; it will be interpreted in ng·h/mL.

molecule: COc1cccc(N2CCN(CC3CCN(c4ncnc5cc(OC)c(OC)cc45)C3)CC2)c1 (centres unmarked) [PQA-AZ4]
readout kind: AUC(0-t)
reported: 118

We now examine a further molecule.
Qu. Let me know recorded AUC(0-t) for COc1cc2ncnc(N3CCC(CN4CCN(c5ccc(Cl)cc5)CC4)C3)c2cc1OC (centres unmarked) [PQA-AZ6] , thanks.
Ans. 144

###

method notes: Pharmacokinetics and brain uptake after i.v. and i.g. administration
Type: in vivo, male Wistar rats
experimental context: male, Wistar, rat, brain, iv, 0.5 mg/kg, i.v. 0.5 mg/kg
readout kind: Tmax (min)
State just the number; it will be interpreted in min.

compound: COc1cc2ncnc(N3CCC(CN4CCN(c5ccc(Cl)cc5)CC4)C3)c2cc1OC (centres unmarked)
readout kind: Tmax
reported: 15

We now examine a further compound.
Qu. Let me know recorded Tmax for COc1cccc(N2CCN(CC3CCN(c4ncnc5cc(OC)c(OC)cc45)C3)CC2)c1 (centres unmarked) , thanks.
Ans. 15
